Target: P70S6K (T412E mutant) (Homo sapiens (Human), UniProt P23443, T412E)
Sequence (P23443 whole entry T412E): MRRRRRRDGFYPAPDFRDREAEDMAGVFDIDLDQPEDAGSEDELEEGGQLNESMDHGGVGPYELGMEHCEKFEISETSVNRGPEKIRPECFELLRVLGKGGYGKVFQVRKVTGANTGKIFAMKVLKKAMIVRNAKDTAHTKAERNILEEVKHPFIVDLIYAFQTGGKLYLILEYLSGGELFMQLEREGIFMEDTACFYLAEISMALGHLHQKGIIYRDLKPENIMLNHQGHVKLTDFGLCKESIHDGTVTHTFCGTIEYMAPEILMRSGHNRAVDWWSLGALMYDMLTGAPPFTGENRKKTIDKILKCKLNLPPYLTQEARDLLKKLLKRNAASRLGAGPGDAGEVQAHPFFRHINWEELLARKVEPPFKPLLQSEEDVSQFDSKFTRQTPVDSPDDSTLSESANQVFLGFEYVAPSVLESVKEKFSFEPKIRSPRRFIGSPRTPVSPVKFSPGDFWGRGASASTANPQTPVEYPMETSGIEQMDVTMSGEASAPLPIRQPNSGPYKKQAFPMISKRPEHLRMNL
Test: P70S6K enzyme assay
Details: 3 nM P70S6K T412E mutant, 24 μM ATP, 1 μM FITC-AHA-AKRRRLSSLRA-OH substrate peptide, 90 min at 25° C.
Procedure: The IC50 values reported for the compounds in the Experimental section were derived from the following protocol for the p70S6K enzyme assay. P70S6K inhibitor compounds were diluted and plated in 96 well plates. […] The proportion of substrate and product (phosphorylated) peptide was analysed on a Caliper Life Sciences Lab Chip 3000, using a pressure of −1.4 psi, and upstream and downstream voltages of −3000 and −700 respectively. […]
metric_name: IC50 (µM)
Hi! Could you send only the number? It should be in µM, unit omitted.

Some solved cases for reference:
Bench note, P70S6K (T412E mutant) (Homo sapiens (Human), UniProt P23443, T412E): NC(=O)c1c(N)ncnc1N1CCC(N)(C(=O)N[C@@H](CCO)c2ccc(Cl)cc2)CC1 , IC50 reads 3.6

Bench note, P70S6K (T412E mutant) (Homo sapiens (Human), UniProt P23443, T412E): entry Nc1ncnc(N2CCC(N)(C(=O)N[C@@H](CCO)c3ccncc3)CC2)c1Cl , its IC50 = 7.2

Observed IC50, P70S6K (T412E mutant) (Homo sapiens (Human), UniProt P23443, T412E), N#Cc1c(N)ncnc1N1CCC(N)(C(=O)N[C@H](c2ccc(Cl)cc2)C(F)(F)F)CC1 : 3.2

Test item Nc1ncnc(N2CCN(C(CN3CCC3)c3cccc(F)c3F)CC2)c1-c1cn[nH]c1 (stereo not shown) ; P70S6K (T412E mutant) (Homo sapiens (Human), UniProt P23443, T412E); reported IC50 was 3.4

# lookup: NCC(c1ccc(Cl)nc1)N1CCN(c2ncnc(N)c2-c2ccc(F)cc2)CC1 (stereo not shown) on P70S6K (T412E mutant) (Homo sapiens (Human), UniProt P23443, T412E), IC50 = 0.0085

---
Value (IC50, P70S6K (T412E mutant) (Homo sapiens (Human), UniProt P23443, T412E)) for record Nc1ncnc(N2CCN([C@H](CN3CCC3)c3ccc4c(c3)OCCO4)CC2)c1-c1cn[nH]c1 = 3.7

Value sought: IC50, system P70S6K (T412E mutant) (Homo sapiens (Human), UniProt P23443, T412E), item C[C@H](NC(=O)C1(N)CCN(c2ncnc(N)c2Cl)CC1)c1ccc(Cl)cc1 . Result: 0.62

Record C[C@@H](c1ccccc1)[C@H](CN)N1CCN(c2ncnc(N)c2-c2ccc(F)cc2)CC1 / P70S6K (T412E mutant) (Homo sapiens (Human), UniProt P23443, T412E), IC50 recorded as 0.28

Reading of IC50 for N#Cc1c(N)ncnc1N1CCC(N)(C(=O)N[C@@H](CCO)c2ccc(F)cc2)CC1 with P70S6K (T412E mutant) (Homo sapiens (Human), UniProt P23443, T412E): 0.39

Tested system P70S6K (T412E mutant) (Homo sapiens (Human), UniProt P23443, T412E); IC50 recorded for NCC(c1ccc(C(F)(F)F)nc1)N1CCN(c2ncnc(N)c2-c2ccc(F)cc2)CC1 (stereo not shown) was 0.0098

// IC50 (P70S6K (T412E mutant) (Homo sapiens (Human), UniProt P23443, T412E)) for NC[C@H](c1ccc(Cl)nc1)N1CCN(c2ncnc(N)c2-c2ccc(F)cc2)CC1 = 0.0008

The value of IC50 recorded for Nc1ncnc(N2CCC(N)(CNC(=O)c3ccc(F)cc3F)C2)c1Br (stereo not shown) when tested on P70S6K (T412E mutant) (Homo sapiens (Human), UniProt P23443, T412E) reads 0.0033

Form field IC50 for item NCC(c1ccc(Cl)c(Cl)c1)N1CCN(c2ncnc(N)c2-c2ccc(F)cc2)CC1 (stereo not shown) on P70S6K (T412E mutant) (Homo sapiens (Human), UniProt P23443, T412E): 0.006

Reported IC50 (P70S6K (T412E mutant) (Homo sapiens (Human), UniProt P23443, T412E)) for entry NCC(c1ccc(Cl)c(F)c1)N1CCN(c2ncnc(N)c2-c2ccc(F)cc2)CC1 (stereo not shown) is 0.0009

Response field IC50 (P70S6K (T412E mutant) (Homo sapiens (Human), UniProt P23443, T412E)) for item Nc1ncnc(N2CCC(C(c3ccc(F)cc3)N3CCC(F)(F)C3)CC2)c1-c1ccc(F)cc1 (stereo not shown) : 0.46

# value of IC50, P70S6K (T412E mutant) (Homo sapiens (Human), UniProt P23443, T412E), item CCOC(=O)Cn1cc(-c2c(N)ncnc2N2CCN(C(CN3CCC3)c3ccc(Cl)c(Cl)c3)CC2)cn1 (stereo not shown) = 24

Let me check: C[C@H](NC(=O)C1(N)CCN(c2ncnc(N)c2C(N)=O)CC1)c1ccc(Cl)cc1 , system P70S6K (T412E mutant) (Homo sapiens (Human), UniProt P23443, T412E), measured IC50 is 20

Test item Nc1ncnc(N2CCC(N)(C(=O)N[C@@H](CCO)c3ccccc3)CC2)c1Cl ; P70S6K (T412E mutant) (Homo sapiens (Human), UniProt P23443, T412E); reported IC50 was 2.8

Lab entry: P70S6K (T412E mutant) (Homo sapiens (Human), UniProt P23443, T412E) assay, compound Nc1ncnc(N2CCC(N)(CNC(=O)c3ccc(F)cc3F)CC2)c1Br , IC50 = 0.15

Here Nc1ncnc(N2CCC(C(O)c3ccc(-c4ccc(F)cc4)cc3)CC2)c1-c1ccc(F)cc1 (stereo not shown) was tested on P70S6K (T412E mutant) (Homo sapiens (Human), UniProt P23443, T412E), and its IC50 came to 0.017

# IC50 measured on P70S6K (T412E mutant) (Homo sapiens (Human), UniProt P23443, T412E) for item Nc1ncnc(N2CCN([C@H](CN3CCC3)c3cccc(F)c3)CC2)c1-c1ccc(F)cc1 = 1.4

The value of IC50 recorded for Nc1ncnc(N2CCC(Cc3ccc(Cl)cc3)CC2)c1-c1ccc(F)cc1 when tested on P70S6K (T412E mutant) (Homo sapiens (Human), UniProt P23443, T412E) reads 0.016

Item C=Cc1c(N)ncnc1N1CCN(C(CN)c2ccc(C(F)(F)F)cc2)CC1 (stereo not shown) was tested on P70S6K (T412E mutant) (Homo sapiens (Human), UniProt P23443, T412E); the reported IC50 is 0.019

N#Cc1c(N)ncnc1N1CCC(N)(CNC(=O)c2ccc(F)cc2F)C1 (stereo not shown) on P70S6K (T412E mutant) (Homo sapiens (Human), UniProt P23443, T412E) gives IC50 = 0.05

Response field IC50 (P70S6K (T412E mutant) (Homo sapiens (Human), UniProt P23443, T412E)) for item CN(C)CCNC(=O)C(c1ccc(C(F)(F)F)cc1)N1CCN(c2ncnc(N)c2-c2ccc(F)cc2)CC1 (stereo not shown) : 0.018

COC[C@H](NC(=O)C1(N)CCN(c2ncnc(N)c2-c2cn[nH]c2)CC1)c1ccc(Cl)cc1 on P70S6K (T412E mutant) (Homo sapiens (Human), UniProt P23443, T412E) gives IC50 = 0.1

# lookup: Nc1ncnc(N2CCN(C(CN3CCC3)c3cccc(F)c3)CC2)c1-c1cn[nH]c1 (single isomer, unassigned) on P70S6K (T412E mutant) (Homo sapiens (Human), UniProt P23443, T412E), IC50 = 15

Response field IC50 (P70S6K (T412E mutant) (Homo sapiens (Human), UniProt P23443, T412E)) for item Cn1cc(-c2c(N)ncnc2N2CCN([C@@H](CN)c3ccc(C(F)(F)F)cc3)CC2)cn1 : 0.006
